# measurement protocol: Half life in C57BL/6 mouse at 2 umol/kg, iv dosed in N-methyl pyrrolidone/blank plasma (10:90 v/v) by LC/MS/MS analysis
# Format: ADME, organism-based
Entries and their measured half-life follow.
// return numeric value only (unit: h, not printed)

CC(C)(C)c1cccc(CN[C@H]2CS(=O)(=O)C[C@@H](Cc3cc(F)c(N)c(OCC(F)(F)F)c3)[C@@H]2O)c1
1.4
CC(C)(C)c1cccc(CN[C@H]2CS(=O)(=O)C[C@@H](Cc3cc(F)c(N)c(OC(C(F)(F)F)C(F)(F)F)c3)[C@@H]2O)c1
2.9

half-life in this record for `CC(C)(C)c1cccc(CN[C@H]2CS(=O)(=O)C[C@@H](Cc3ccc(N)c(Br)c3)[C@@H]2O)c1` : 4

====

Entries and their measured efflux ratio at 2 h, 5 µM follow.
# Test system: MDR1 (human)
# measurement protocol: Efflux ratio of permeability from basolateral to apical over apical to basolateral side of MDCK cells expressing human MDR1 at 5 uM after 2 hrs by LC/MS analysis
# Format: ADME, cell-based, Canis lupus familiaris
# condition notes: dog
Response field accepts a number only; no unit should be typed.

// solved cases for efflux ratio at 2 h, 5 µM follow
CC(C)(C)c1cccc(CN[C@H]2CS(=O)(=O)C[C@@H](Cc3ccc4[nH]ccc4c3)[C@@H]2O)c1 (racemic)
3
CC(C)(C)c1cccc(CN[C@H]2CS(=O)(=O)C[C@@H](Cc3ccc4[nH]cc(CC(F)F)c4c3)[C@@H]2O)c1 (racemic)
8
CCCOc1cc(C[C@@H]2CS(=O)(=O)C[C@H](NCc3cccc(C(C)(C)C)c3)[C@H]2O)ccc1N
2

# lookup: `CC(C)(C)c1cccc(CN[C@H]2CS(=O)(=O)C[C@@H](Cc3cc(F)c(N)c(OCC(F)F)c3)[C@@H]2O)c1` on MDR1 (human), efflux ratio at 2 h, 5 µM = 10

# lookup: CCCOc1cccc(C[C@@H]2CS(=O)(=O)C[C@H](NCc3cccc(C(C)(C)C)c3)[C@H]2O)c1 (relative stereo) on MDR1 (human), efflux ratio at 2 h, 5 µM = 1

# lookup: `CC(C)(C)c1cccc(CN[C@H]2CS(=O)(=O)C[C@@H](Cc3cc(F)c(N)c(-c4ccco4)c3)[C@@H]2O)c1` on MDR1 (human), efflux ratio at 2 h, 5 µM = 2

# lookup: CC(C)(C)c1cccc(CN[C@H]2CS(=O)(=O)C[C@@H](Cc3ccc(N)nc3)[C@@H]2O)c1 (racemic) on MDR1 (human), efflux ratio at 2 h, 5 µM = 16

====

# measurement protocol: Ratio of drug uptake in brain to blood in C57BL/6 mouse at 6 umol/kg, po dosed in carboxymethyl cellulose 0.5% w/v in water/Tween 80 (99.5/0.5, v/v) measured 4 hrs post dosing by LC/MS/MS analysis
# Format: ADME, organism-based
experimental endpoint: Kp at 4 h
Response field accepts a number only; no unit should be typed.

Kp at 4 h in this record for `CC(C)(C)c1cccc(CN[C@H]2CS(=O)(=O)C[C@@H](Cc3cc(F)c(N)c(OCC(F)(F)F)c3)[C@@H]2O)c1` : 11

====

# Tested on: MDR1 (human)
# measurement protocol: Apparent permeability across MDCK cells expressing human MDR1 at 5 uM after 2 hrs by LC-MS analysis
# Type: ADME, cell-based, Canis lupus familiaris
# condition notes: dog
Entries and their measured Papp at 2 h, 5 µM follow.
// return numeric value only (unit: ×10⁻⁶ cm/s, not printed)

// solved cases for Papp at 2 h, 5 µM follow
C[C@@H](Oc1cc(C[C@@H]2CS(=O)(=O)C[C@H](NCc3cccc(C(C)(C)C)c3)[C@H]2O)cc(F)c1N)C(F)(F)F
10
CC(C)(C)c1cccc(CN[C@H]2CS(=O)(=O)C[C@@H](Cc3cc(F)c(N)c(OCCC(F)(F)F)c3)[C@@H]2O)c1
12
CC(C)(C)c1cccc(CN[C@H]2CS(=O)(=O)C[C@@H](Cc3cc(F)c(N)c(OCC(F)(F)F)c3)[C@@H]2O)c1
25

Pending compound:
Papp at 2 h, 5 µM in this record for `CCc1cc(C[C@@H]2CS(=O)(=O)C[C@H](NCc3cccc(C(C)(C)C)c3)[C@H]2O)cc(F)c1NC(C)=O` : 17
